src = patent US20090136448A1

- System: HCV replication, genotype 1b (Huh-7 HCV replicon cell, sub-line 5-15)
- test-name: Replicon ELISA cell based assay, genotype 1b
- condition-set: Hepatitis C virus, Huh-7 HCV replicon cells, genotype 1b (sub-line 5-15), 72 hours, mean, assayed at least twice
pIC50: −log10 of the molar value.
# Lookup of reported pIC50 keyed by entry

molecule	pIC50
CC(C)N(c1cc(-c2ccc(-c3cc4nccc(N)n4n3)c(Cl)c2)sc1C(=O)O)C(=O)[C@H]1CC[C@H](C)CC1	> 8.30
CC(C)N(c1cc(-c2ccc(-c3nc4ncccc4o3)cc2)sc1C(=O)O)C(=O)[C@H]1CC[C@H](C(F)(F)F)CC1	6.30 to 7.00
CC(C)N(c1cc(-c2ccc(-c3nc4c(N)cccc4o3)cc2)sc1C(=O)O)C(=O)[C@H]1CC[C@H](C)CC1	7.30 to 8.00
CC(C)N(c1cc(-c2ccc(-c3cc4ncccc4o3)cc2)sc1C(=O)O)C(=O)[C@H]1CC[C@H](C(F)(F)F)CC1	7.00 to 7.30
CC(C)N(c1cc(-c2ccc(-c3ccc(Cl)cc3)cc2)sc1C(=O)O)C(=O)[C@H]1CC[C@H](C)CC1 [Compound C, reference compound]	< 5.30
CC(C)N(c1cc(-c2ccc(-c3cc4cccc(O)c4o3)cc2)sc1C(=O)O)C(=O)[C@H]1CC[C@H](C)CC1	> 8.30
